Reported koff by item:
molecular target: T1, human CD3ε/δ-Fc fusion protein (soluble recombinant CD3ε/δ complex) (human, UniProt P04234 22-105); assay: SPR Biacore, CD3εδ-Fc captured, Fab analyte
T1 construct: also called huCD3ε/δ; huCD3; not shown: hinge, CH2, CH3 of human IgG with tag
T1 sequence (chain, as listed by the source mutant, chain 1 of 2): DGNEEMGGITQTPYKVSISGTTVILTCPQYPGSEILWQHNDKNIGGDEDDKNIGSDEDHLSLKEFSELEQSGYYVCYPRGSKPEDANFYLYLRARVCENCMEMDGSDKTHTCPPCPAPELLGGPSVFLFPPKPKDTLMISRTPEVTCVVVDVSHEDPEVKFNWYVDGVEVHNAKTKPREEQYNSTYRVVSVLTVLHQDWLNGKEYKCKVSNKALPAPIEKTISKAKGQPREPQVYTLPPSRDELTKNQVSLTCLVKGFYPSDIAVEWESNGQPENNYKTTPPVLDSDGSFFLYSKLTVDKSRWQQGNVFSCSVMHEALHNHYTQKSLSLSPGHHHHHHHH
T1 sequence (P04234 22-105, stated change not applied, chain 2 of 2): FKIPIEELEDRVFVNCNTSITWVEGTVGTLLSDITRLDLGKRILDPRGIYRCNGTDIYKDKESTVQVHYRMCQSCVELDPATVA
Numeric answer only, unit s⁻¹ assumed.

// query Return reported koff; argument: 4B4-D7 Fab (Fab, V domains shown, also called BDW-4B4-D7) VH: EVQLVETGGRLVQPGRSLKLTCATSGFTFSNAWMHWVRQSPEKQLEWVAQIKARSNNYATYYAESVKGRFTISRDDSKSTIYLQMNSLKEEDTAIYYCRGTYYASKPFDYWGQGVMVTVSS VL: DVVMTQTPVSLSVSLGGQVSISCRSSQSLVHDNGNTYLSWSLQRPGQSPQVLIYKVSNRFSGTSDRFTGSGSGTDFTLKISRVEPDDLGVYYCGQGTQYPFTFGSGTKLEIKR
// result 0.0029

// query What value of koff has been recorded for this entry: 12G3-E8 Fab (Fab, V domains shown) VH: EVRVVETGGSLVQPGKSLKLTCATSGFTFSLAWMHWVRQSPEKKLEWVAQIKDKANNYATYYAESVKGRFTISRDDSKRSVYLQMNRLKEEDTAIYYCRGVYYGFSMTPFDYWGQGVMVTVSS VL: DVAMTQTPVSLSVSLGGQVSISCRSSQSLVHNNGNTYLSWYLQKPGQSPQVLIYKVSNRFSGISDRFSGSGSGADFTLKISRVEPDDLGVYYCGQGTQYPFTFGAGTKLELK
// result 0.0011

// query Query: koff; subject: 11F9-F8 Fab (Fab, V domains shown, also called 11F9-F8-huFab) VH: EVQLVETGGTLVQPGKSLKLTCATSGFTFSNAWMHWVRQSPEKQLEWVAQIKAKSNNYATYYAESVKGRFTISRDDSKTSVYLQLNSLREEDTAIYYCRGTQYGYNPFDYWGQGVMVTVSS VL: DVVLTQTPVSLSVSLGGQVSISCRSSQSLVHNNGNTYLSWSLQKPGQSPQVLIYKVSNRFSGISNRFSGSGSGTDFTLKISRVEPDDLGVYYCGQGAHYPFTFGSGTKLEIK
// result 0.0004
